System: Pu24T (c-myc G-quadruplex DNA) (DNA, G4) TGAGGGTGGTGAGGGTGGGGAAGG
Protocol: ITC
Protocol conditions: 100 mM KCl, 10 mM potassium phosphate; pH 7.0, 25 °C; site 1 of 2
Give K1 for every item shown.

COc1ccc([C@@H]2CC(=O)c3c(O)cc(O[C@@H]4O[C@H](CO[C@@H]5O[C@@H](C)[C@H](O)[C@@H](O)[C@H]5O)[C@@H](O)[C@H](O)[C@H]4O)cc3O2)cc1O : 7.35×10^5 ± 1.06 M^-1

Each of the following entries comes with a recorded value; kindly state K1 for each.
1. O=c1c(O)c(-c2ccc(O)c(O)c2)oc2cc(O)cc(O)c12
2. O=c1c(-c2ccc(O)cc2)coc2cc(O)ccc12
3. O=c1c(O)c(-c2cc(O)c(O)c(O)c2)oc2cc(O)cc(O)c12
4. O=c1c(-c2ccc(O)cc2)coc2c([C@@H]3O[C@H](CO)[C@@H](O)[C@H](O)[C@H]3O)c(O)ccc12
5. C[C@@H]1O[C@@H](OC[C@H]2O[C@@H](Oc3c(-c4ccc(O)c(O)c4)oc4cc(O)cc(O)c4c3=O)[C@H](O)[C@@H](O)[C@@H]2O)[C@H](O)[C@H](O)[C@H]1O

1: 1.57 × 10^7 ± 2.14 M-1; 2: 3.34×10^5 ± 1.50 M^-1; 3: 1.65×10^5 ± 0 M^-1; 4: 1.10×10^4 ± 7.75 M^-1; 5: 7.23 × 10^5 ± 8.60 M-1

###

Kindly state Kd1 for each of the entries shown.
Test system: Pu24T (c-myc G-quadruplex DNA) (DNA, G4) TGAGGGTGGTGAGGGTGGGGAAGG
Protocol: ligand fluorescence titration
Protocol conditions: 100 mM KCl, 10 mM potassium phosphate; pH 7.0, 25 °C; site 1 of 2
Give bare numbers, in µM.

A selection of reference data follows.
O=c1c(-c2ccc(O)cc2)coc2c([C@@H]3O[C@H](CO)[C@@H](O)[C@H](O)[C@H]3O)c(O)ccc12 : 88.8
O=c1cc(-c2ccc(O)c(O)c2)oc2cc(O)cc(O)c12 : 1.5
O=c1c(O)c(-c2cc(O)c(O)c(O)c2)oc2cc(O)cc(O)c12 : 1.4
O=c1c(O)c(-c2ccc(O)cc2)oc2cc(O)cc(O)c12 : 1.3
O=c1c(-c2ccc(O)cc2)coc2cc(O)ccc12 : 47
COc1ccc([C@@H]2CC(=O)c3c(O)cc(O[C@@H]4O[C@H](CO[C@@H]5O[C@@H](C)[C@H](O)[C@@H](O)[C@H]5O)[C@@H](O)[C@H](O)[C@H]4O)cc3O2)cc1O : 1

Turning to the following compound.
Provide only the value of recorded Kd1 for C[C@@H]1O[C@@H](OC[C@H]2O[C@@H](Oc3c(-c4ccc(O)c(O)c4)oc4cc(O)cc(O)c4c3=O)[C@H](O)[C@@H](O)[C@@H]2O)[C@H](O)[C@H](O)[C@H]1O
17.1
